The reported measurements were obtained from paper PMC13626384.

Test system: Caco-2 cells
Assay: Caco-2 cell permeability and efflux
Type: in vitro ADME, human
Conditions: Caco-2, B-A direction
Reported Metric: % Recovery (B-A) (%)

| Compound | Quantity Unit | Recorded Value |
| --- | --- | --- |
| CC(C)C[C@H](NC(=O)[C@@H]1Cc2c(F)c(F)c(c(F)c2F)Sc2cccc(c2)CC(=O)NC(C)(C)C(=O)N1)C(=O)[C@@]1(C)CO1 [Compound 31] | % | 73 |
| CC(C)C[C@H](NC(=O)[C@@H]1Cc2c(F)c(F)c(c(F)c2F)Sc2cccc(c2)CC(=O)N[C@@H](C(C)C)C(=O)N1)C(=O)[C@@]1(C)CO1 [Compound 10] | % | 75 |
| CC(C)C[C@H](NC(=O)[C@@H]1CSCCCCCCCCCC(=O)N[C@@H](C(C)C)C(=O)N1)C(=O)[C@@]1(C)CO1 [Compound 39] | % | 74 |
| CC(C)C[C@H](NC(=O)[C@@H]1Cc2c(F)c(F)c(c(F)c2F)S(=O)(=O)c2cccc(c2)CC(=O)N[C@@H](C(C)C)C(=O)N1)C(=O)[C@@]1(C)CO1 [Compound 11] | % | 97 |

* * *

Target: human immunoproteasome (i20S) β1 (Homo sapiens, UniProt P28065+P40306)
Assay: Proteasome subunit inhibition, i20S β1
Format: biochemical
Conditions: read-out: i20S β1 IC50 ± SD; read 60 to 90 minutes after start
Reported Metric: IC50 (nM)

| Compound Structure | Reported Metric | Quantity Unit | Recorded Value |
| --- | --- | --- | --- |
| CC(C)C[C@H](NC(=O)[C@@H]1Cc2c(F)c(F)c(c(F)c2F)Sc2cccc(c2)CC(=O)N[C@@H](C(C)C)C(=O)N1)C(=O)[C@@]1(C)CO1 | IC50 | nM | 163 |
| CC(C)C[C@H](NC(=O)[C@@H]1Cc2ccc(cc2)OCCCCCC(=O)N[C@@H](C(C)C)C(=O)N1)C(=O)[C@@]1(C)CO1 | IC50 | nM | 81.7 |
| CC(C)C[C@H](NC(=O)[C@@H]1Cc2c(F)c(F)c(c(F)c2F)Sc2cccc(c2)CC(=O)NC(C)(C)C(=O)N1)C(=O)[C@@]1(C)CO1 | IC50 | nM | 207 |
| CC(C)C[C@H](NC(=O)[C@@H]1Cc2c(F)c(F)c(c(F)c2F)Sc2cccc(c2)CC(=O)N[C@@H]([C@@H](C)O)C(=O)N1)C(=O)[C@@]1(C)CO1 | IC50 | nM | 310 |
| CC(C)C[C@H](NC(=O)[C@@H]1CSCCCCCCCCCC(=O)N[C@@H](C(C)C)C(=O)N1)C(=O)[C@@]1(C)CO1 | IC50 | nM | 99 |
| CC(C)C[C@H](NC(=O)[C@@H]1Cc2c(F)c(F)c(c(F)c2F)S(=O)(=O)c2cccc(c2)CC(=O)N[C@@H](C(C)C)C(=O)N1)C(=O)[C@@]1(C)CO1 | IC50 | nM | 379 |

* * *

Each item that follows carries a reported % Recovery (A-B).
System: Caco-2 cells
Experiment: Caco-2 cell permeability and efflux
Type: in vitro ADME, human
Details: Caco-2, A-B direction

| Compound | Quantity Unit | % Recovery (A-B) |
| --- | --- | --- |
| CC(C)C[C@H](NC(=O)[C@@H]1Cc2c(F)c(F)c(c(F)c2F)Sc2cccc(c2)CC(=O)NC(C)(C)C(=O)N1)C(=O)[C@@]1(C)CO1 [Compound 31] | % | 94 |
| CC(C)C[C@H](NC(=O)[C@@H]1Cc2c(F)c(F)c(c(F)c2F)S(=O)(=O)c2cccc(c2)CC(=O)N[C@@H](C(C)C)C(=O)N1)C(=O)[C@@]1(C)CO1 [Compound 11] | % | 91 |
| CC(C)C[C@H](NC(=O)[C@@H]1Cc2c(F)c(F)c(c(F)c2F)Sc2cccc(c2)CC(=O)N[C@@H](C(C)C)C(=O)N1)C(=O)[C@@]1(C)CO1 [Compound 10] | % | 83 |
| CC(C)C[C@H](NC(=O)[C@@H]1CSCCCCCCCCCC(=O)N[C@@H](C(C)C)C(=O)N1)C(=O)[C@@]1(C)CO1 [Compound 39] | % | 67 |

* * *

Assay: PAMPA-BBB permeability assay
Details: PAMPA-BBB

| Compound | Mean Permeability |
| --- | --- |
| CC(C)C[C@H](NC(=O)[C@@H]1Cc2ccc(cc2)OCCCCCC(=O)N[C@@H](C(C)C)C(=O)N1)C(=O)[C@@]1(C)CO1 [Compound 33] | 1.49 10^−6 cm/sec |
| CC(C)C[C@H](NC(=O)[C@@H]1Cc2c(F)c(F)c(c(F)c2F)Sc2cccc(c2)CC(=O)N[C@@H]([C@@H](C)O)C(=O)N1)C(=O)[C@@]1(C)CO1 [Compound 14] | 3.75 10^−6 cm/sec |
| CC(C)C[C@H](NC(=O)[C@@H]1Cc2c(F)c(F)c(c(F)c2F)Sc2cccc(c2)CC(=O)N[C@@H](C(C)C)C(=O)N1)C(=O)[C@@]1(C)CO1 [Compound 10] | 3.48 10^−6 cm/sec |

* * *

Tested on: H460 cell line
Assay: Cytotoxicity against H460 cells
Type: cell-based
Conditions: read-out: H460 IC50; non-small cell lung cancer cell line
Each item that follows carries a reported IC50.

| Compound | IC50 |
| --- | --- |
| CC(C)C[C@H](NC(=O)[C@@H]1Cc2c(F)c(F)c(c(F)c2F)Sc2cccc(c2)CC(=O)N2C[C@H]3[C@@H]([C@H]2C(=O)N1)C3(C)C)C(=O)[C@@]1(C)CO1 | > 15 µM |
| CC(C)C[C@H](NC(=O)[C@@H]1Cc2c(F)c(F)c(c(F)c2F)Sc2cccc(c2)CC(=O)N(C)[C@@H](C(C)C)C(=O)N1)C(=O)[C@@]1(C)CO1 | > 15 µM |
| CC(C)CC(NC(=O)C1Cc2c(F)c(F)c(c(F)c2F)S(=O)(=O)c2cccc(c2)CC(=O)NC(C(C)C)CC(=O)N1)C(=O)C1(C)CO1 (stereo not drawn) | > 15 µM |

* * *

System: H460 cell line
Assay: Cytotoxicity against H460 cells
Type: cell-based
Details: read-out: H460 IC50; non-small cell lung cancer cell line
Each item that follows carries a reported IC50.

| Compound Structure | IC50 |
| --- | --- |
| CC(C)C[C@H](NC(=O)[C@@H](CSc1c(F)c(F)c(F)c(F)c1F)NC(=O)Cc1c(F)c(F)c(F)c(F)c1F)C(=O)[C@@]1(C)CO1 | > 10 µM |
| CC(C)C[C@H](NC(=O)[C@@H]1Cc2c(F)c(F)c(c(F)c2F)Sc2cccc(c2)CC(=O)N[C@H](C(C)C)CC(=O)N1)C(=O)[C@@]1(C)CO1 | > 15 µM |
| CC(C)C[C@H](NC(=O)[C@@H]1Cc2c(F)c(F)c(c(F)c2F)Sc2cccc(c2)CC(=O)NCC(=O)N1)C(=O)[C@@]1(C)CO1 | > 15 µM |
